Tested on: MDA-MB-435
Assay: NCI tumour cell line growth inhibition, 48 h
Activity calls are given as the source filed them. Cut-off read from the data, not from the text of the source: active = GI50 up to about 1.1 µM and inactive = higher.
GI50 for assorted compounds
quantity_name: GI50

COc1ccc(/C=C2\CCCCCC2=O)cc1 ... > 100 µM (inactive)
COC(=O)C1=C(O)C(C(=O)OC)[C@]2(O)[C@@H](C(=O)OC)[C@H]1C[C@@H](c1ccccc1)[C@@H]2C(=O)OC (stereo not given in full) ... 7.71 µM (inactive)
COc1cc(OCc2nc3cc(C(F)(F)F)ccc3nc2-c2ccccc2)cc(OC)c1OC ... > 100 µM (inactive)
c1ccc(C2SCc3nc4cc5ccccc5cc4n32)cc1 (stereo not given) ... > 100 µM (inactive)
CN1/C(=C/C=C/C=C/C=C2C(=O)c3ccccc3C2=O)C(C)(C)c2ccccc21 ... 54.5 µM (inactive)

###

System: SK-OV-3
Assay: NCI tumour cell line growth inhibition, 48 h
Activity calls are given as the source filed them. Rule as the data show it: active = GI50 up to about 1.1 µM and inactive = higher.
GI50 for assorted molecules
quantity_name: GI50

CC(C)[C@H]1CO[C@]2(C)[C@@H]3CN(Cc4ccccc4)C[C@@H]3C(=O)N12 ... > 100 µM (inactive)
Cc1cc(C)c2c(-c3ccccc3)cc(=O)[nH]c2c1 ... > 100 µM (inactive)
COc1ccc(/C=C2\CCC(C)C3=C2NC(=S)NC3c2ccc(OC)c(OC)c2)cc1OC (stereo not given) ... 29.9 µM (inactive)
C1=C(c2ccccc2)Nc2nnnn2C1c1ccccc1 (stereo not given) ... 58.1 µM (inactive)
O/N=C1/C(=C/c2ccccc2)CCCC1C(NO)c1ccccc1 (stereo not given) ... > 100 µM (inactive)

###

System: IGROV-1
Experiment: NCI tumour cell line growth inhibition, 48 h
Active and inactive are the calls of the source. No stated cut-off is given here; in the data, active = GI50 up to about 1.1 µM and inactive = higher.
quantity_name: GI50

CC(C)(C)CC(C)(C)c1cc2c(O)c(c1)Cc1cc(C(C)(C)CC(C)(C)C)cc(c1O)Cc1cc(C(C)(C)CC(C)(C)C)cc(c1O)Cc1cc(C(C)(C)CC(C)(C)C)cc(c1O)Cc1cc(C(C)(C)CC(C)(C)C)cc(c1O)Cc1cc(C(C)(C)CC(C)(C)C)cc(c1O)Cc1cc(C(C)(C)CC(C)(C)C)cc(c1O)Cc1cc(C(C)(C)CC(C)(C)C)cc(c1O)C2 ... > 100 µM (inactive)
C[C@H](CCC(=O)NCCS(=O)(=O)O)[C@H]1CC[C@H]2[C@@H]3CC[C@@H]4C[C@H](O)CC[C@]4(C)[C@H]3CC[C@]12C ... > 100 µM (inactive)
CC(=O)NCCCCCCNC(C)=O [HEXAMETHYLENEBISACETAMIDE] ... 9180 µM (inactive)

###

System: SK-MEL-28
Assay: NCI tumour cell line growth inhibition, 48 h
The source made the active and inactive calls. No stated cut-off is given here; in the data, active = GI50 up to about 1.1 µM and inactive = higher.
GI50 for assorted compounds
quantity_name: GI50

O=C1CSC(=O)/C1=C\NNc1nc2ccccc2o1 ... 67 µM (inactive)
CCOC(=O)C[C@@H]1C2(C=C[C@@]13CO3)OCC(C)(C)CO2 ... > 100 µM (inactive)
COC(=O)C1=C(O)C(C(=O)OC)[C@]2(O)[C@@H](C(=O)OC)[C@H]1C[C@@H](c1ccccc1)[C@@H]2C(=O)OC (some centres undefined) ... 20.9 µM (inactive)
COCN1C(N)=C(C(=O)OC(C)(C)C)C2=CC(=O)C=CC21C (centres undefined) ... 20.3 µM (inactive)
COC(=O)C1(c2ccc(N(C)C)cc2OC)CCCN(C(=O)Oc2ccccc2[N+](=O)[O-])CCc2c1[nH]c1ccccc21 (centres undefined) ... > 100 µM (inactive)
COc1ccc2c(c1)C1=NCCN(C)c3ccc([N+](=O)[O-])c(c31)N2 ... 2.55 µM (inactive)
C=C(C)[C@H]1CC(=O)/C(C)=C\CC/C(C)=C/CC[C@@]2(C)O[C@@H]2C1 ... 19.2 µM (inactive)
O=C(O)Cc1c(-c2ccc([N+](=O)[O-])cc2)c(=O)oc2cc(O)ccc12 ... 38 µM (inactive)
COc1cc(C2c3cc4c(cc3[C@@H](Nc3cccc(C(C)=O)c3)C3COC(=O)[C@H]23)OCO4)cc(OC)c1O (some centres undefined) ... 3.01 µM (inactive)
O=C(c1ccccc1)C(c1ccccc1)C1(O)C(=O)Nc2c(Cl)ccc(Cl)c21 (centres undefined) ... 18.7 µM (inactive)
COc1ccc(C2OC(=O)c3c2ccc2ccccc32)c(C)c1 (centres undefined) ... 2.92 µM (inactive)
COc1ccccc1C1=C2C(=O)N(C)C(c3ccccc3OC)=C2C(=O)N1C ... 76.6 µM (inactive)
C#CCOCn1ccc(=O)[nH]c1=O ... > 100 µM (inactive)
CC(C)(C)c1cc(C2COC(c3cc(C(C)(C)C)c(O)c(C(C)(C)C)c3)CO2)cc(C(C)(C)C)c1O (centres undefined) ... > 100 µM (inactive)
CC(C)Cn1cnc2c(NCC(C)O)nc3ccccc3c21 (centres undefined) ... > 100 µM (inactive)
CC1(C)c2ccccc2C(=O)C12CCC(=O)CC2 ... > 100 µM (inactive)
C/C(CN1C(=O)c2ccccc2C1=O)=N\NS(C)(=O)=O ... > 100 µM (inactive)
Cc1c(O)c(OC2OC(CO)C(O)C(O)C2O)cc2c1C=C[C@@H]1[C@@]2(C)C(=O)C[C@]2(C)[C@@H]([C@@](C)(O)C(O)/C=C/C(C)(C)O)[C@H](O)C[C@@]12C (some centres undefined) ... > 100 µM (inactive)
COc1ccccc1NC(=O)NS(=O)(=O)c1ccccc1 ... > 100 µM (inactive)
